These data points were gathered from paper PMC6009593.

# ASSAYED_TARGET: T1, Pyrococcus furiosus Proliferating Cell Nuclear Antigen (PfuPCNA) (Pyrococcus furiosus, UniProt O73947 1-249)
# T1 sequence (looked up): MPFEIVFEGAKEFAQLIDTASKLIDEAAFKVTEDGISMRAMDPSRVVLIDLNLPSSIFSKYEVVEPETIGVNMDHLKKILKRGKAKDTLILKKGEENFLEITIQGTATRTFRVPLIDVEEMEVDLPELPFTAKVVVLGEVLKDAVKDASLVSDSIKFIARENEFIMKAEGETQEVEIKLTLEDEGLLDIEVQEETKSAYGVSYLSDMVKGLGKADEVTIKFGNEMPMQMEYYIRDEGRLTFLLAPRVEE
# EXPERIMENT_SUMMARY: SPR
OBSERVATION_TYPE: Kd (µM)
Value expressed in µM; do not type the unit.

Request: Sample Ac-KKKRGTLDSWLGG-NH2 [PIP-like Mre11 peptide (PfuMre11 412–424)] — what was its Kd?
Result: 4.05
